Field: Kd. Provide a value for each of the binders that follow.
Molecular target: T1, human SIRPαV2 extracellular domain + His-tag (CAA71403.1) (human, UniProt P78324 31-373)
T1 construct: also called hSIRPαV2; HuSIRPαV2
T1 sequence (P78324 other isoform, or with tags, fused parts or gaps): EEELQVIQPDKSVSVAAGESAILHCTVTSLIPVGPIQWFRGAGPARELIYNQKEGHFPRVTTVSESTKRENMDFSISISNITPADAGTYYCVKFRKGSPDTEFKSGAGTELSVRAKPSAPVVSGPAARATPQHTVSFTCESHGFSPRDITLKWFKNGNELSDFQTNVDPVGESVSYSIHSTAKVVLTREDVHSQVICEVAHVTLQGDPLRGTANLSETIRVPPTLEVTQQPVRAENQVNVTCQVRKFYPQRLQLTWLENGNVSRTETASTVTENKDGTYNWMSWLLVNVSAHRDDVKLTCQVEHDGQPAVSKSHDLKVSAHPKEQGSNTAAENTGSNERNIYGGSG
Test: SPR, Ab captured, ECD-His analyte
Method: The binding affinity of anti-SIRPα antibodies to the various SIRPα analytes is determined by surface plasmon resonance (SPR) using a ProteOn XPR36 (Bio-Rad). The running buffer for this experiment and all dilutions (except where stated) are done in 1×HBS-EP+. […] The sensorchip is deactivated with 1M ethanolamine HCl for 420 sec at a flowrate of 10 μl/min. The analyte is injected over the captured antibody for 300 sec at a flowrate of 30 μl/min. The dissociation is done for 600 sec. […]
Answers are plain numbers, in nM.

INSERT INTO measurements (binder, reading) VALUES
  ('Antibody E14 (antibody, human IgG1, kappa, L234A L235A, V domains shown) VH: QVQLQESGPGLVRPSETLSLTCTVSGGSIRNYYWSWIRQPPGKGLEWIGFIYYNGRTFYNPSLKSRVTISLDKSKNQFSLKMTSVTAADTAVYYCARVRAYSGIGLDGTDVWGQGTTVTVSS VL: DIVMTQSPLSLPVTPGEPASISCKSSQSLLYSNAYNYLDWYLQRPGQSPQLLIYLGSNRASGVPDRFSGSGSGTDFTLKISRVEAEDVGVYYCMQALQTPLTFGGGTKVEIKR', 1.36),
  ('Antibody E7 (antibody, human IgG1, kappa, L234A L235A, V domains shown) VH: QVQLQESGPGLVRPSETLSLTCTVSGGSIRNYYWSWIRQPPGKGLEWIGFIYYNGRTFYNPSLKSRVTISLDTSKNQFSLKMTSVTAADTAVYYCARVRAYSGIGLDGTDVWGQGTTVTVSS VL: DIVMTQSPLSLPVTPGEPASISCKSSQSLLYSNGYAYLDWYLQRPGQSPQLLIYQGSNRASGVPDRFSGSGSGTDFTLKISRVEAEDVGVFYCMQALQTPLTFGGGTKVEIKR', 1.18);

Next:
Entry under test: Antibody E2 (antibody, human IgG1, kappa, L234A L235A, V domains shown) VH: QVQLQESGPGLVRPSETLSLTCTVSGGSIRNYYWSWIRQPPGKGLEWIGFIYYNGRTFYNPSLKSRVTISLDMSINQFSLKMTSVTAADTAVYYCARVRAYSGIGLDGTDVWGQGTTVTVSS VL: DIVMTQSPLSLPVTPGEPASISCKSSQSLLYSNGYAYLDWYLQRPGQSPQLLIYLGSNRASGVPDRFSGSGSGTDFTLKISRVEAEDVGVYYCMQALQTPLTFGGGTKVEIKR . Its Kd was 0.687
